# Actin-related protein 2 (Homo sapiens, UniProt P61160): Kd values follow; note: in the data inactive means no Kd found up to 30 µM
Activity calls are given as the source filed them.

Example entries and their recorded answers appear below.
N#CCNC(=O)c1ccc(-c2ccnc(Nc3ccc(N4CCOCC4)cc3)n2)cc1 [MOMELOTINIB] = > 30 µM (inactive)
COc1cccc(Nc2ncnn3ccc(CN4CC[C@@H](N)[C@H](O)C4)c23)c1 [BMS-690514] = > 30 µM (inactive)
COc1ccc2c(OCc3nnc4ccc(-c5ccccc5)nn34)ccnc2c1 [AMG-208] = > 30 µM (inactive)
C=CCn1c(=O)c2cnc(Nc3ccc(N4CCN(C)CC4)cc3)nc2n1-c1cccc(C(C)(C)O)n1 [ADAVOSERTIB] = > 30 µM (inactive)
O=C(NOC[C@H](O)CO)c1ccc(F)c(F)c1Nc1ccc(I)cc1F [MIRDAMETINIB] = > 30 µM (inactive)

# input // fetch Actin-related protein 2 (Homo sapiens, UniProt P61160) Kd for O=S(=O)(c1cccc2c(O)nccc12)N1CCCNCC1 [HYDROXYFASUDIL]
# output > 30 µM (inactive)

# input // fetch Actin-related protein 2 (Homo sapiens, UniProt P61160) Kd for Cc1cc(C(=O)Nc2cc(Oc3ccc4nc(NC(=O)C5CC5)cn4n3)ccc2C)n(C)n1 [TAK-593]
# output > 30 µM (inactive)

# input // fetch Actin-related protein 2 (Homo sapiens, UniProt P61160) Kd for COc1cc2nccc(Oc3ccc(NC(=O)C4(C(=O)Nc5ccc(F)cc5)CC4)cc3)c2cc1OC [CABOZANTINIB]
# output > 30 µM (inactive)
